Measured inhibition of individual entries
tested-target: Gag-Pol polyprotein (Human immunodeficiency virus type 1 group M subtype B (isolate HXB2))
assay-text: RNase H inhibition, HIV 1 Gag Pol polyprotein, FRET biochemical assay, screening (AID 372)
assay-setup: HIV-1 RT RNase H, FRET RNA/DNA substrate fluorescence; at 10 µM; stronger effect = higher value
The whole screen tested about 100,000 compounds, of which about 770 (0.77%) were called active. This excerpt belongs to a sample that is enriched for actives.

{"columns": ["compound", "inhibition"],
 "data": [
  ["COc1ccc(C2CC(=O)C3=C(C2)Nc2ccccc2NC3c2cccc(Cl)c2Cl)cc1OC (stereo unspecified)", "16% (inactive)"],
  ["S=C(NCCc1ccccc1)Nc1ccc(Cl)cc1Cl", "46% (inactive)"]
]}

Inquiry: // query inhibition value for entry COc1ccc(OC)c(NC(=O)COc2ccc(Cl)c(C)c2)c1
Reply text: 15% (inactive)

Inquiry: Entry Cc1ccccc1/C=N/NC(=O)Nc1ccccc1 : reported inhibition = ?
Reply text: 16% (inactive)

Source listed as PubChem BioAssay AID372.
